- subject_of_test: T1, BRD^Baz2B L2073V (human, UniProt Q9UIF8 2054-2168, L2073V, fluorescent label (Monolith NT Protein Labelling Kit RED-NHS))
- T1 construct: bromodomain (BRD) of human Baz2B with a cancer-associated point mutation, made on pNIC28-Bsa4-BAZ2B-BRD; Same limits as m1; mutation found in pancreatic cancer (COSMIC/ICGC); source: E. coli BL21(DE3)-R3-pRARE2, purified (Ni-NTA, Sephadex 75)
- T1 sequence: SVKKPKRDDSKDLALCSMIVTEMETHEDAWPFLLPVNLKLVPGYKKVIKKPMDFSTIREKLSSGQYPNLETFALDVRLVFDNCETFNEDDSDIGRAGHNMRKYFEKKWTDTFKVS
- test_summary: MST; 100 nM fluorescently labelled (RED-NHS) BRD^Baz2B, peptide (H3 or H3K14ac) titrated; MST buffer 150 mM Tris-HCl, 50 mM NaCl, 10 mM MgCl2, pH 7.6, 0.0025% Pluronic, 200 ng/ul BSA; 25 C, 20% MST power; at least triplicate
- applied_conditions: both partners purified
measured_parameter: Kd (µM)

>  <binder>
Ac-TARKSTGGKAPRKQL-NH2 (N-terminal tail of histone H3, residues 6-20; also called unmodified H3 peptide; unmodified H3K14 tail peptide; source: synthetic peptide, bought: alta Bioscience) [H3 peptide (Ac-TARKSTGGKAPRKQL-NH2)]

>  <measurement_unit>
µM

>  <value>
7

$$$$
>  <binder>
Ac-TARKSTGGK(Ac)APRKQL-NH2 (N-terminal tail of histone H3, residues 6-20; also called acetylated H3 tail peptide; acetylated at K14 (K14ac) N-terminal H3 histone tail peptide; source: synthetic peptide, bought: alta Bioscience) [H3K14ac peptide (Ac-TARKSTGGK(ac)APRKQL-NH2)]

>  <measurement_unit>
µM

>  <value>
78

$$$$
